Test system: E. coli DH5α
Experiment: Antibacterial activity: MIC and growth curve against E. coli DH5α in 96-well plate
Format: cell-based
Details: minimal inhibitory concentration against E. coli DH5α; 96-well plate, 5×10^5 CFU/mL, 37° C., judged after 8 h

Substance: PRT200 (NFSTCLSSKEGTICSGNGVCSNELKCVCNRHWIGSDCN; listed as Homo sapiens)
MIC: 12.5 µg/mL

Substance: PRT580 (CDCDPMGSQDGGRCDSHDDPALGLVSGQCRCKEHVVGTRCQQCRDGFFGLSISDRLGCRR; listed as Homo sapiens)
MIC: 12.5 µg/mL

Substance: PRT932 (QVNECLSNPCIHGNCTGGLSGYKCLCDAGWVGINCE; listed as Homo sapiens)
MIC: 25 µg/mL

Substance: PRT1197 (DIDECAAKMHYCHANTVCVNLPGLYRCDCVPGYIRVDDFSCT; listed as Homo sapiens)
MIC: 25 µg/mL

Substance: PRT1413 (PTNQCIDVACSNHGTCITGTCICNPGYKGESCE; listed as Homo sapiens)
MIC: 12.5 µg/mL

Substance: PRT1142 (DVNKCKISPCLDEENCVYRTDGYNCLCAPGYTGINCE; listed as Homo sapiens)
MIC: 25 µg/mL

Substance: PRT975 (LVDWCSRQPCQNGGRCVQTGAYCLCPPGWSGRLCD; listed as Homo sapiens)
MIC: 25 µg/mL

Substance: PRT181 (RADPCAARPCAHGGRCYAHFSGLVCACAPGYMGARCE; listed as Homo sapiens)
MIC: 25 µg/mL
